Hey, just so you know, these numbers are from ChEMBL document CHEMBL1146234.

Tested on: Neutrophil
assay-info: Inhibition of IL8-induced neutrophil chemotaxis after 45 mins by Boyden chamber assay
Assay type: functional, cell-based
experimental-parameters: Homo sapiens, 0.75 h
outcome-measure: IC50 (nM)

# molecule, unit-name, assay-result
measured = [
    ("CCOC(=O)c1cnn(CC(O)c2ccccc2)c1NC(=O)N1CCN(C)CC1 (centres undefined)", "nM", 865),
    ("CCOC(=O)c1cnn(CC(O)c2ccccc2)c1NC(=O)Nc1ccccc1F (centres undefined)", "nM", 33),
    ("CCOC(=O)c1cnn(CC(O)c2ccccc2)c1NC(=O)Nc1ccccc1OC (centres undefined)", "nM", 1200),
    ("CCOC(=O)c1cnn(CC(O)c2ccccc2)c1NC(=O)NCc1ccccc1Cl (centres undefined)", "nM", 1240),
    ("CCOC(=O)c1cnn(CC(O)c2ccccc2)c1NC(=O)Nc1cccc(Cl)c1 (centres undefined)", "nM", 1560),
    ("CCOC(=O)c1cnn(CC(O)c2ccccc2)c1NC(=O)N1CCCCC1 (centres undefined)", "nM", 3090),
    ("CCOC(=O)c1cnn(CC(O)c2ccccc2)c1NC(=O)NCc1ccc(F)cc1 (centres undefined)", "nM", 212),
    ("CCOC(=O)c1cnn(CC(O)c2ccccc2)c1NC(=O)Nc1cccc(F)c1 (centres undefined)", "nM", 36),
    ("CCOC(=O)c1cnn(CC(O)c2ccccc2)c1NC(=O)Nc1ccc(F)cc1 (centres undefined)", "nM", 33),
]

* * *

Test system: Neutrophil
assay-info: Inhibition of IL8-induced neutrophil chemotaxis after 45 mins by Boyden chamber assay
Assay type: functional, cell-based
experimental-parameters: Homo sapiens, 0.75 h

# molecule, subject-of-test, IC50 [nM]
rows = [
    ("CCOC(=O)c1cnn(CC(O)c2ccccc2)c1NC(=O)NCc1ccccc1F (configuration not stated)", "Neutrophil", 1490),
    ("CCOC(=O)c1cnn(CC(O)c2ccccc2)c1NC(=O)NCc1ccc(Cl)cc1 (configuration not stated)", "Neutrophil", 935),
    ("CCOC(=O)c1cnn(CC(O)c2ccccc2)c1NC(=O)NCc1cccc(Cl)c1 (configuration not stated)", "Neutrophil", 570),
    ("CCOC(=O)c1cnn(CC(O)c2ccccc2)c1NC(=O)Nc1cccc(OC)c1 (configuration not stated)", "Neutrophil", 1400),
    ("CCOC(=O)c1cnn(CC(O)c2ccccc2)c1NC(=O)N1CCOCC1 (configuration not stated)", "Neutrophil", 950),
    ("CC(C)NC(=O)Nc1c(C#N)cnn1CC(O)c1ccccc1 (configuration not stated)", "Neutrophil", 35),
    ("CCOC(=O)c1cnn(CC(O)c2ccccc2)c1NC(=O)NCc1cccc(Br)c1 (configuration not stated)", "Neutrophil", 198),
    ("CC(C)NC(=O)Nc1ccnn1CC(O)c1ccccc1 (configuration not stated)", "Neutrophil", 825),
    ("CCOC(=O)c1cnn(CC(O)c2ccccc2)c1NC(=O)Nc1ccc(C)cc1 (configuration not stated)", "Neutrophil", 445),
    ("CCOC(=O)c1cnn(CC(O)c2ccccc2)c1NC(=O)NCc1ccccc1Br (configuration not stated)", "Neutrophil", 1780),
    ("CCOC(=O)c1cnn(CC(O)c2ccccc2)c1NC(=O)Nc1ccc(Cl)cc1 (configuration not stated)", "Neutrophil", 345),
    ("CCOC(=O)c1cnn(CC(O)c2ccccc2)c1NC(=O)Nc1ccc(Br)cc1 (configuration not stated)", "Neutrophil", 92),
    ("CCOC(=O)c1cnn(CC(O)c2ccccc2)c1NC(=O)NCCc1ccccc1 (configuration not stated)", "Neutrophil", 610),
    ("CCOC(=O)c1cnn(CC(O)c2ccccc2)c1NC(=O)Nc1cccc(Br)c1 (configuration not stated)", "Neutrophil", 424),
    ("CCOC(=O)c1cnn(CC(O)c2ccccc2)c1NC(=O)NC1CC1 (configuration not stated)", "Neutrophil", 5520),
    ("CCOCCNC(=O)Nc1c(C(=O)OCC)cnn1CC(O)c1ccccc1 (configuration not stated)", "Neutrophil", 1000),
    ("N#Cc1cnn(CC(O)c2ccccc2)c1NC(=O)Nc1ccccc1 (configuration not stated)", "Neutrophil", 225),
    ("CC(C)NC(=O)Nc1c(C(=O)O)cnn1CC(O)c1ccccc1 (configuration not stated)", "Neutrophil", 251),
    ("CCOC(=O)c1cnn(CC(O)c2ccccc2)c1NC(=O)NCc1cccc(F)c1 (configuration not stated)", "Neutrophil", 318),
    ("CCOC(=O)c1cnn(CC(O)c2ccccc2)c1NC(=O)N1CCCC1 (configuration not stated)", "Neutrophil", 4950),
    ("CCOC(=O)c1cnn(CC(O)c2ccccc2)c1NC(=O)NCc1ccc(Br)cc1 (configuration not stated)", "Neutrophil", 3890),
    ("CCOC(=O)c1cnn(CC(O)c2ccccc2)c1NC(=O)Nc1cccc(C)c1 (configuration not stated)", "Neutrophil", 398),
]
